System: PC-3
Assay: NCI tumour cell line growth inhibition, 48 h
Activity calls are given as the source filed them. No stated cut-off is given here; in the data, active = GI50 up to about 1.1 µM and inactive = higher.
Collected GI50 values appear next to each entry.

O/N=N/c1ccc([SH2]c2ccc3ccccc3c2)cn1
8.85 µM (inactive)

Task: // Input: O=C(NC(=S)NC(=O)c1cc(O)c(O)c(O)c1)c1cc(O)c(O)c(O)c1 . Output its GI50 only.
Result: 19.7 µM (inactive)

Task: For O=C(/C=C/c1ccc(OCc2ccccc2)c(OCc2ccccc2)c1)OCc1ccccc1 , write its GI50.
Result: > 100 µM (inactive)

Task: Supply GI50 value. Item: CC(=O)c1ccccc1NS(=O)(=O)c1ccc2nc(C)n(NS(=O)(=O)c3ccccc3C(C)=O)c(=O)c2c1
Result: > 100 µM (inactive)

Task: Indicate its recorded GI50; the molecule in question is O=C1NC(N2CCCCC2)=N/C1=C\c1ccco1
Result: > 100 µM (inactive)

* * *

Test system: OVCAR-4
Experiment: NCI tumour cell line growth inhibition, 48 h
The source made the active and inactive calls. Cut-off read from the data, not from the text of the source: active = GI50 up to about 1.1 µM and inactive = higher.
Return exactly one item of True for active, False for inactive

// below: answered compounds
Cn1c(/C=C/CO)c(CO)c2c1C(=O)C=C(N1CC1)C2=O
True
COc1cc2c(cc1OC)C1C[C@]3(CCN1CC2)C(=O)N(c1ccccc1)C(=O)N3C(C)=O (stereo partly specified)
False
Cc1cc(C)c(C2[C@H]3C(=O)N(c4ccc(Cc5ccc(N6C(=O)[C@@H]7ON(c8ccccc8)C(c8c(C)cc(C)cc8C)[C@@H]7C6=O)cc5)cc4)C(=O)[C@H]3ON2c2ccccc2)c(C)c1 (stereo partly specified)
False

Task: Please state the recorded outcome for this compound: O=C1CSC2(CC(/C=C/c3cccs3)=NN2c2cccc(S(=O)(=O)O)c2)N1c1nc2ccccc2s1 (stereo unspecified)
Result: False

Task: # lookup: test call for CCCCC(=O)Nc1ccc2cc(C(=O)OC)c(=O)[nH]c2n1
Result: False

Task: Would you mind telling me which call this test gave O=S(=O)(O)c1cc(O)c2c(O)c(/N=N/c3cccc4ccccc34)c(S(=O)(=O)O)cc2c1 ?
Result: False

Task: Hi, do you know how CC(/C=C/C=C/C=C/C=C/C=C/C(=O)C1=C(O)C(CCC(=O)O)N(C)C1=O)=C\C(C)C(OC1CC(O)C(O)C(C)O1)C(C)C (stereo unspecified) came out in this test?
Result: False

Task: For this compound, state the assay outcome: CCSc1cc(C(=O)OC)c2n(c1=O)CCCC2
Result: False

Task: Record request — test call for CCOc1ccc2nc(NC(=O)C(=O)C(C(=O)c3ccccc3-c3ccccc3)C3OC(=O)c4ccccc43)sc2c1 (stereo unspecified)
Result: False

Task: Assay result, entry Cc1cc2c(cc1O)CC[C@@H]1[C@@H]2CC[C@]2(C)[C@@H](O)CC[C@@H]12 — outcome?
Result: False

Task: Any idea what this test logged for COC(=O)[C@H](Cc1c[nH]c2ccccc12)NC(=O)c1ccc(CNC(=O)/C(C)=C/c2ccccc2)cc1 ?
Result: False

Task: Give the logged outcome of this assay for the following compound: O=C(O)c1ccc2nc(-c3ccccn3)c(-c3ccccn3)nc2c1
Result: False

Task: Short answer needed: outcome of this test for c1cc(C[S+]2CCCC2)sc1C[S+]1CCCC1 ?
Result: False

Task: Which result was noted for this compound in the test: CCCCCCCCCC[C@@H](O)[C@H]1CC[C@H]([C@H]2CC[C@H]([C@H](O)CCCCCCCCCC[C@@H]3CC(CC(C)=O)C(=O)O3)O2)O1 (stereo partly specified)
Result: False

Task: Hey, what did the test say about CC(C)(C)C1=C(Br)C(C(C)(C)C)OP1(=O)O (stereo unspecified) ?
Result: False

Task: Outcome? O=c1ccn([C@@H]2C[C@H](CO)C[S+]([O-])C2)c(=O)[nH]1 (stereo partly specified)
Result: False

Task: For Cc1cn([C@H]2C[C@](C)(CO)N(C)O2)c(=O)[nH]c1=O , what call appears in the results of this test?
Result: False

* * *

System: HCC 2998
Test: NCI tumour cell line growth inhibition, 48 h
The source made the active and inactive calls. Rule as the data show it: active = GI50 up to about 1.1 µM and inactive = higher.
RESULT_TYPE: GI50

CCOC(=O)c1sc2ncnc(N)c2c1C
40.1 µM (inactive)
CCCC1C(=O)CCc2c(OC)ccc(OC)c21 (stereo not given)
> 100 µM (inactive)
CCCCC(=O)Nc1ccc2cc(C(=O)OC)c(=O)[nH]c2n1
> 100 µM (inactive)
CC(=O)c1c(SCCN2CCCCCC2)n(-c2ccccc2)c(=S)n(-c2ccccc2)c1=O
4.3 µM (inactive)
COc1cc2oc3cc(=O)cc4oc(-c5ccccc5)cc(c2c2c1CCC(c1ccccc1)O2)c43 (stereo not given)
34.2 µM (inactive)

Task: Fill in GI50 for record CN(C)CCN1N=Nc2cccc3cccc1c23
Result: > 100 µM (inactive)

Task: In one line, give reported GI50 of the entry O=C(/C=C/c1cccc(Oc2ccccc2)c1)NCc1ccc(C(=O)NCCc2ccccc2)cc1 .
Result: > 100 µM (inactive)

Task: Look up and state reported GI50 for C/C(=N/O)C1CC=C(S(=O)(=O)c2ccccc2)C1 (stereo not given)
Result: > 100 µM (inactive)

* * *

Test system: HL-60
Assay: NCI tumour cell line growth inhibition, 48 h
The source made the active and inactive calls. No stated cut-off is given here; in the data, active = GI50 up to about 1.1 µM and inactive = higher.
Pick one and only one: YES (active), NO (inactive)

Oc1cc(-c2cccc(OC(F)(F)F)c2)nc2cc3c(cc12)OCO3
YES

Task: Could you check what this test reported for CC(C)=NN/C=N\C(C#N)=C(/N)C#N ?
Result: NO

* * *

Tested on: ACHN
Assay: NCI tumour cell line growth inhibition, 48 h
Calls of active or inactive are those of the source. Cut-off read from the data, not from the text of the source: active = GI50 up to about 1.1 µM and inactive = higher.
Assign a class; possible classes are active, inactive

Consider the worked cases shown below.
Cc1ccc([N+](=O)[O-])cc1NC(=O)C(=O)Cc1occc(=O)c1O
inactive
CC1=NN(c2ccccc2)C(=O)C1/N=N/c1ccc(Br)c(C)c1 (stereo unspecified)
inactive
NS(=O)(=O)c1ccc(NC(=O)Nc2cccc3ccccc23)cc1
inactive
Nc1ccn(C2CCC(CO)O2)c(=S)n1 (stereo unspecified)
inactive
COc1ccc(OC)c2c1ccc1c(C)c3ccccc3c(C)c12
inactive

Note: attention shifts to another entry.
Task: For CCC(=O)NCCc1c2c3c(ccnc3c3ncsc13)-c1ccccc1N2 , what call appears in the results of this test?
Result: active

* * *

Form field: GI50 (one value per entry).
Tested on: UACC-257
Assay: NCI tumour cell line growth inhibition, 48 h
The source made the active and inactive calls. Cut-off read from the data, not from the text of the source: active = GI50 up to about 1.1 µM and inactive = higher.

CCC(C#N)NC(=O)NC(C#N)CC (stereo not drawn)
> 100 µM (inactive)
OCCN1CCN(CC/C=C2/c3ccccc3Sc3ccc(Cl)cc32)CC1
2.52 µM (inactive)

Now consider the entry below.
Task: Using the record for Cc1ccc(C)c(N2C(=O)C(=O)C(c3nc4ccccc4o3)/C(=N\NC(=O)c3ccccc3O)C2=O)c1 (stereo not drawn) , state its measured GI50.
Result: 23 µM (inactive)

* * *

Test system: HOP-62
Experiment: NCI tumour cell line growth inhibition, 48 h
The source made the active and inactive calls. Cut-off read from the data, not from the text of the source: active = GI50 up to about 1.1 µM and inactive = higher.
// GI50 lookup, one value per entry

Please review the following examples before continuing.
CN(C)c1ccc(C(N)=O)cn1
> 100 µM (inactive)
CCOP(=O)(OCC)C(Cc1ccc(Cl)cc1)NS(=O)(=O)c1ccc(C)cc1 (stereo not given)
> 100 µM (inactive)

Task: Write down GI50 measured for item COc1cc2oc3cc(=O)cc4oc(-c5ccccc5)cc(c2c2c1CCC(c1ccccc1)O2)c43 (stereo not given)
Result: 41 µM (inactive)

Task: Using known records, supply GI50 for CC(C)Cc1cc(CCC(=O)Nc2ccccc2[N+](=O)[O-])nc(NC#N)n1
Result: > 100 µM (inactive)

Task: Note GI50 for the compound shown: O=c1c(Br)cc2nc3ccccc3sc-2c1Br
Result: > 100 µM (inactive)

* * *

System: NCI-H226
Assay: NCI tumour cell line growth inhibition, 48 h
Calls of active or inactive are those of the source. Rule as the data show it: active = GI50 up to about 1.1 µM and inactive = higher.
RESULT_TYPE: GI50

Worked examples, 2 molecules total:
CC(C)Cc1cc(CCC(=O)Nc2ccccc2[N+](=O)[O-])nc(NC#N)n1
> 100 µM (inactive)
C[C@]1(CO)CCC[C@@]2(C)C1CC[C@H]1CC3C[C@]12CC[C@]3(C)O (stereo partly drawn)
> 100 µM (inactive)

# next molecule below
Task: Indicate the recorded GI50 value for this molecule: C[C@@H](C[C@@H](O)[C@H](O)C(C)(C)O)[C@H]1CC=C2[C@]3(C)[C@H](O)C[C@H]4C(C)(C)[C@H](O)CC[C@]4(C)[C@H]3CC[C@@]21C
Result: 20.7 µM (inactive)

* * *

Test system: SNB-75
Assay: NCI tumour cell line growth inhibition, 48 h
The source made the active and inactive calls. Rule as the data show it: active = GI50 up to about 1.1 µM and inactive = higher.
Classes to choose from: active, inactive

Observe how each entry below is paired with its result.
N#C[BH2-][n+]1ccc(C(=O)NNCc2cccc(C(F)(F)F)c2)cc1
inactive
CCOC(=O)C1C(c2ccc(OC)cc2)c2c(nn(-c3ccccc3)c2O)CC1(C)O (stereo unspecified)
inactive
CCSc1cc(C(=O)OC)c2n(c1=O)CCCC2
inactive
CC(C)(c1ccccc1)c1ccc(OC#N)cc1
inactive
N#C/C(=C\c1ccc(F)cc1)c1nc(-c2cc3ccccc3oc2=O)cs1
inactive
CC(Oc1ccc2c(-c3ccccc3)cc(=O)oc2c1)C(=O)O (stereo unspecified)
inactive

Task: Recorded call for CCOC(=O)c1cnc2c(ccc3ncccc32)c1OCC ?
Result: inactive

Task: Hi, sorry to bother you, what did the test record for CCOC(=O)/C(C(=O)c1ccc[nH]1)=C1/CCCN1C ?
Result: inactive

Task: Hi team, can someone confirm the assay call for [N-]=[N+]=Nc1ccccc1Oc1ccccc1 ?
Result: inactive

Task: Hi team, can someone confirm the assay call for COc1ccc(-n2nnc3c(C#N)c(C)c(-c4ccccc4)n3c2=O)cc1 ?
Result: inactive

Task: What classification did N#CCc1nc(-c2cc3c(ccc4ccccc43)oc2=O)cs1 end up with in this test?
Result: active

Task: For CCCCCCCCCC[C@@H](O)[C@H]1CC[C@H]([C@H]2CC[C@H]([C@H](O)CCCCCCCCCC[C@@H]3CC(CC(C)=O)C(=O)O3)O2)O1 (stereo partly specified) , what call appears in the results of this test?
Result: inactive

Task: What classification did COC(=O)C(C#N)=C1c2ccccc2Oc2ccccc21 end up with in this test?
Result: inactive

Task: For this compound, state the assay outcome: Cc1cc(C)c2c(c1)C(=O)C1(C2)Cc2c(ccc(C)c2C)C1=O (stereo unspecified)
Result: inactive

Task: What outcome does the record of this test show for CCOC(=O)c1sc2ncnc(N)c2c1C ?
Result: inactive

Task: What is the recorded call for this compound in the test? COc1cc(OC)c(C/C=C/c2ccccc2)cc1O
Result: inactive

Ref: ChEMBL document CHEMBL1201862
